testSystem: Human SGLT2 (hSGLT2) (Homo sapiens)
assayProtocol: Sodium-dependent glucose transport (14C-AMG uptake) assay in CHO cells stably expressing hSGLT2
assayConditions: CHO cells expressing hSGLT2, 14C-AMG uptake, 37° C. for 2 h; single determinations; read-out: hSGLT2 Inhibitory Activity IC50
parameter: IC50 (nM)

- molecule: "O[C@@H]1[C@@H](O)[C@H](c2ccc(Cl)c(Cc3ncc(-c4ccco4)s3)c2)O[C@H](CF)[C@H]1O [Example 145]"
  parameter: "IC50"
  reported: 10.6
- molecule: "COc1c(Cc2ncc(-c3cccs3)s2)cc([C@@H]2O[C@H](CO)[C@@H](O)[C@H](O)[C@H]2O)c2ccccc12 [Example 96]"
  parameter: "IC50"
  reported: 4.94
- molecule: "OC[C@H]1O[C@@H](c2ccc(Cl)c(Cc3cnc(-c4ccno4)s3)c2)[C@H](O)[C@@H](O)[C@@H]1O [Example 192]"
  parameter: "IC50"
  reported: 20.2
- molecule: "Cc1ccc([C@@H]2O[C@H](CO)[C@@H](O)[C@H](O)[C@H]2O)cc1Cc1ncc(-c2ccc(Cl)cc2)s1 [Example 38]"
  parameter: "IC50"
  reported: 25.6
- molecule: "COc1c(Cc2ncc(C3CCCCC3)s2)cc([C@@H]2O[C@H](CO)[C@@H](O)[C@H](O)[C@H]2O)c2ccccc12 [Example 102]"
  parameter: "IC50"
  reported: 50.3
- molecule: "OC[C@H]1O[C@@H](c2cc(Cc3ncc(-c4cccs4)s3)c(Cl)cc2F)[C@H](O)[C@@H](O)[C@@H]1O [Example 55]"
  parameter: "IC50"
  reported: 3.88
- molecule: "CCCCc1cnc(Cc2cn([C@@H]3O[C@H](CO)[C@@H](O)[C@H](O)[C@H]3O)c3ccccc23)s1 [Example 135]"
  parameter: "IC50"
  reported: 123
- molecule: "C=CCOc1cc(Cl)c(Cc2ncc(-c3ccccc3)s2)cc1[C@@H]1O[C@H](CO)[C@@H](O)[C@H](O)[C@H]1O [Example 87]"
  parameter: "IC50"
  reported: 3.38

(I) COc1c(Cc2ncc(-c3ccc(F)cc3)s2)cc([C@@H]2O[C@H](CO)[C@@H](O)[C@H](O)[C@H]2O)c2ccccc12 [Example 2]
(II) Cc1ccc([C@@H]2O[C@H](CO)[C@@H](O)[C@H](O)[C@H]2O)cc1Cc1ncc(-c2ccccc2)s1 [Example 35]
Ask: So which one has the bigger IC50 here, I or II ? Pick one and reply with its label.
Result: I
(I: 12 nM, II: 4.17 nM)

(1) OC[C@H]1O[C@@H](c2ccc(Cl)c(Cc3ncc(-c4ccco4)s3)c2)[C@H](O)[C@@H](O)[C@@H]1O [Example 5]
(2) CCCCCCCc1cnc(Cc2cc([C@@H]3O[C@H](CO)[C@@H](O)[C@H](O)[C@H]3O)c3ccccc3c2O)s1 [Example 127]
(3) OC[C@H]1O[C@@H](c2ccc(F)c(Cc3ncc(-c4ccco4)s3)c2)[C@H](O)[C@@H](O)[C@@H]1O [Example 40]
Ask: Please list these molecules in decreasing order of IC50. List the labels, following the order given in the request.
Result: 2, 3, 1
(2: 32.8 nM, 3: 6.11 nM, 1: 1.75 nM)

----------
testSystem: Human SGLT2 (hSGLT2) (Homo sapiens)
Sequence (P31639 1-672): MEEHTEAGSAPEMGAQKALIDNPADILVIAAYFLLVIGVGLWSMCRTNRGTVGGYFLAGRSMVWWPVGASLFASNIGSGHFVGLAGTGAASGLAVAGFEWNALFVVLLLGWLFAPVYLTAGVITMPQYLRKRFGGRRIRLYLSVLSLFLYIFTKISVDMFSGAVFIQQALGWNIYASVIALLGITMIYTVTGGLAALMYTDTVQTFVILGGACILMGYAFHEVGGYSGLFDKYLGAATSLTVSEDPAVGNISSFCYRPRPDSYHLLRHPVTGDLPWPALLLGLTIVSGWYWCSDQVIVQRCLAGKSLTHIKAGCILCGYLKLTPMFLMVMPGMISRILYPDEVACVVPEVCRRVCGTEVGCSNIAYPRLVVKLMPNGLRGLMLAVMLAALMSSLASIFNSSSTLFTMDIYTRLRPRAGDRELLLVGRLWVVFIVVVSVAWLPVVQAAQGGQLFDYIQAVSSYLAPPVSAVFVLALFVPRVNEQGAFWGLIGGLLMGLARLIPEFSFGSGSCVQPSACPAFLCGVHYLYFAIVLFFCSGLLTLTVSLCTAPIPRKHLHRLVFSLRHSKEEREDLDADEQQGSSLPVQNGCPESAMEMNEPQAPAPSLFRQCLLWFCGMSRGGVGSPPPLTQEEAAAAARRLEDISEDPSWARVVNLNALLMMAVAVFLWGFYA
assayProtocol: Sodium-dependent glucose transport (14C-AMG uptake) assay in CHO cells stably expressing hSGLT2
assayConditions: CHO cells expressing hSGLT2, 14C-AMG uptake, 37° C. for 2 h; single determinations; read-out: hSGLT2 Inhibitory Activity IC50
parameter: IC50 (µM)

(A) OC[C@H]1O[C@@H](c2ccc(Cl)c(Cc3cnc(-c4ccco4)s3)c2)[C@H](O)[C@@H](O)[C@@H]1O
(B) CCSc1cnc(Cc2cc([C@@H]3O[C@H](CO)[C@@H](O)[C@H](O)[C@H]3O)ccc2Cl)s1
Ask: Form: Entry with minimum IC50 (choose one): A / B Pick one and reply with its label.
Result: A

(A) CSc1ncc(Cc2cc([C@@H]3O[C@H](CO)[C@@H](O)[C@H](O)[C@H]3O)ccc2Cl)s1
(B) COC[C@H]1O[C@@H](c2ccc(Cl)c(Cc3ncc(-c4ccco4)s3)c2)[C@H](O)[C@@H](O)[C@@H]1O
Ask: So which one has the bigger IC50 here, A or B ? Pick one and reply with its label.
Result: B

(1) OC[C@H]1O[C@@H](c2ccc(Cl)c(Cc3ncc(-c4nncs4)s3)c2)[C@H](O)[C@@H](O)[C@@H]1O
(2) OC[C@H]1O[C@@H](c2cc(Cc3ncc(C4CCCC4)s3)c(Cl)cc2Cl)[C@H](O)[C@@H](O)[C@@H]1O
Ask: So which one has the bigger IC50 here, 1 or 2 ? Pick one and reply with its label.
Result: 2
(2: 0.033 µM, 1: 0.014 µM)
